Record form. Attribute: viability, T/C. Fill in for each entry.
test system: OVCAR-5 complex spheroids, viability; test: Anticancer human tumor OVCAR-5 cell line growth inhibition; conditions: second compound 10 µM; first compound 0.003 µM; active compounds read low
Please give a number only; it is taken to be in %.

Indicate the recorded viability, T/C value for this compound: Nc1ncn(C2CC(O)C(CO)S2)c(=O)n1 (stereo unspecified) + NC1CCC(NC2CC2c2ccccc2)CC1
81.9

Indicate the recorded viability, T/C value for this compound: CCc1c2c(nc3ccc(O)cc13)-c1cc3c(c(=O)n1C2)COC(=O)[C@]3(O)CC + NC1CC1c1ccc(-c2cccc(O)c2)cc1
19.9

Indicate the recorded viability, T/C value for this compound: CCc1c2c(nc3ccc(O)cc13)-c1cc3c(c(=O)n1C2)COC(=O)[C@]3(O)CC + NC1CCC(NC2CC2c2ccccc2)CC1
25.4

Indicate the recorded viability, T/C value for this compound: Nc1ccn(C2OC(CO)C(O)C2(F)F)c(=O)n1 (stereo unspecified) + NC1CC1c1ccc(-c2cccc(O)c2)cc1
29.1

Indicate the recorded viability, T/C value for this compound: Nc1ccn(C2OC(CO)C(O)C2(F)F)c(=O)n1 (stereo unspecified) + NC1CCC(NC2CC2c2ccccc2)CC1
34.9

Indicate the recorded viability, T/C value for this compound: Nc1ncn(C2CC(O)C(CO)S2)c(=O)n1 (stereo unspecified) + NC1CC1c1ccc(-c2cccc(O)c2)cc1
93.6

----------
system: OVCAR-5 complex spheroids, viability; test: Anticancer human tumor OVCAR-5 cell line growth inhibition; conditions: second compound 0.1 µM; first compound 0.1 µM; active = viability on the fitted dose curve at most 10% of control; inactive = the rest
Write down the outcome that applies. Available outcomes: active, inactive

How was CC(C)CC(NC(=O)C(Cc1ccccc1)NC(=O)c1cnccn1)B(O)O (centres undefined) + NC1CCC(NC2CC2c2ccccc2)CC1 classified in this test?
active

How was CC1COCCN1c1cc(-c2ccnn2C)c2ccnc(-c3ccn[nH]3)c2n1 (centres undefined) + NC1CCC(NC2CC2c2ccccc2)CC1 classified in this test?
inactive

How was Nc1ncn(C2CC(O)C(CO)O2)c(=O)n1 (centres undefined) + NC1CCC(NC2CC2c2ccccc2)CC1 classified in this test?
inactive

How was CC[C@@]1(O)C(=O)OCc2c1cc1n(c2=O)Cc2cc3c(CN(C)C)c(O)ccc3nc2-1 + NC1CCC(NC2CC2c2ccccc2)CC1 classified in this test?
inactive

----------
test system: OVCAR-5 complex spheroids, viability; experiment: Anticancer human tumor OVCAR-5 cell line growth inhibition; settings: second compound 0.1 µM; first compound 0.0949 µM; active means viability on the fitted dose curve at most 10% of control; inactive means the rest;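 note: spheroids exposed to agents for seven days; 100% = DMSO vehicle control wells viability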
Write down the outcome that applies. Available outcomes: label 1 for active, label 0 for inactive

How was CCc1c2c(nc3ccc(O)cc13)-c1cc3c(c(=O)n1C2)COC(=O)[C@]3(O)CC + NC1CCC(NC2CC2c2ccccc2)CC1 classified in this test?
label 1

How was Nc1ncn(C2CC(O)C(CO)S2)c(=O)n1 (centres undefined) + NC1CC1c1ccc(-c2cccc(O)c2)cc1 classified in this test?
label 0

How was Nc1ccn(C2OC(CO)C(O)C2(F)F)c(=O)n1 (centres undefined) + NC1CC1c1ccc(-c2cccc(O)c2)cc1 classified in this test?
label 0

How was Nc1ccccc1NC(=O)c1ccc(CNC(=O)OCc2cccnc2)cc1 + NC1CCC(NC2CC2c2ccccc2)CC1 classified in this test?
label 0

----------
system: OVCAR-5 complex spheroids, viability; assay: Anticancer human tumor OVCAR-5 cell line growth inhibition; conditions: second compound 3.16 µM; first compound 0.3 µM; active compounds read low;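 note: spheroids exposed to agents for seven days; 100% = DMSO vehicle control wells viability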
Record form. Attribute: viability, T/C. Fill in for each entry.
Please give a number only; it is taken to be in %.

Indicate the recorded viability, T/C value for this molecule: COc1cc(C2c3cc4c(cc3C(OC3OC5COC(C)OC5C(O)C3O)C3COC(=O)C23)OCO4)cc(OC)c1O (centres undefined) + NC1CC1c1ccc(-c2cccc(O)c2)cc1
55

Indicate the recorded viability, T/C value for this molecule: Nc1ccn(C2OC(CO)C(O)C2(F)F)c(=O)n1 (centres undefined) + NC1CCC(NC2CC2c2ccccc2)CC1
31.9

Indicate the recorded viability, T/C value for this molecule: Nc1ccccc1NC(=O)c1ccc(CNC(=O)OCc2cccnc2)cc1 + NC1CCC(NC2CC2c2ccccc2)CC1
47

Indicate the recorded viability, T/C value for this molecule: CCc1c2c(nc3ccc(O)cc13)-c1cc3c(c(=O)n1C2)COC(=O)[C@]3(O)CC + NC1CCC(NC2CC2c2ccccc2)CC1
0.71

Indicate the recorded viability, T/C value for this molecule: CCc1c2c(nc3ccc(O)cc13)-c1cc3c(c(=O)n1C2)COC(=O)[C@]3(O)CC + NC1CC1c1ccc(-c2cccc(O)c2)cc1
0.58

Indicate the recorded viability, T/C value for this molecule: Nc1ccn(C2OC(CO)C(O)C2(F)F)c(=O)n1 (centres undefined) + NC1CC1c1ccc(-c2cccc(O)c2)cc1
25.9

Indicate the recorded viability, T/C value for this molecule: Nc1ncn(C2CC(O)C(CO)S2)c(=O)n1 (centres undefined) + NC1CCC(NC2CC2c2ccccc2)CC1
75.8

Indicate the recorded viability, T/C value for this molecule: CCN(c1cc(-c2ccc(CN3CCOCC3)cc2)cc(C(=O)NCc2c(C)cc(C)[nH]c2=O)c1C)C1CCOCC1 + NC1CCC(NC2CC2c2ccccc2)CC1
81.4

Indicate the recorded viability, T/C value for this molecule: COc1cc(C2c3cc4c(cc3C(OC3OC5COC(C)OC5C(O)C3O)C3COC(=O)C23)OCO4)cc(OC)c1O (centres undefined) + NC1CCC(NC2CC2c2ccccc2)CC1
70.9

----------
tested on: OVCAR-5 complex spheroids, viability; experiment: Anticancer human tumor OVCAR-5 cell line growth inhibition; details: second compound 10 µM; first compound 0.1 µM; active compounds read low;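 note: spheroids exposed to agents for seven days; 100% = DMSO vehicle control wells viability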
Record form. Attribute: viability, T/C. Fill in for each entry.
Please give a number only; it is taken to be in %.

Indicate the recorded viability, T/C value for this compound: Nc1ncn(C2CC(O)C(CO)O2)c(=O)n1 (stereo not drawn) + NC1CC1c1ccc(-c2cccc(O)c2)cc1
60.3

Indicate the recorded viability, T/C value for this compound: CC(C)CC(NC(=O)CNC(=O)c1cc(Cl)ccc1Cl)B1OC(=O)CC(CC(=O)O)(C(=O)O)O1 (stereo not drawn) + NC1CCC(NC2CC2c2ccccc2)CC1
56.6

Indicate the recorded viability, T/C value for this compound: O=C(c1cc(Cc2n[nH]c(=O)c3ccccc23)ccc1F)N1CCN(C(=O)C2CC2)CC1 + NC1CCC(NC2CC2c2ccccc2)CC1
97

Indicate the recorded viability, T/C value for this compound: Nc1ncn(C2CC(O)C(CO)O2)c(=O)n1 (stereo not drawn) + NC1CCC(NC2CC2c2ccccc2)CC1
67.1

Indicate the recorded viability, T/C value for this compound: CC[C@@]1(O)C(=O)OCc2c1cc1n(c2=O)Cc2cc3c(CN(C)C)c(O)ccc3nc2-1 + NC1CC1c1ccc(-c2cccc(O)c2)cc1
20.7

Indicate the recorded viability, T/C value for this compound: O=C(c1cc(Cc2n[nH]c(=O)c3ccccc23)ccc1F)N1CCN(C(=O)C2CC2)CC1 + NC1CC1c1ccc(-c2cccc(O)c2)cc1
87

Indicate the recorded viability, T/C value for this compound: CC(C)c1c(-c2ccccc2)nc2c(C#N)c[nH]n2c1=O + NC1CCC(NC2CC2c2ccccc2)CC1
81.5

Indicate the recorded viability, T/C value for this compound: CC(C)CC(NC(=O)C(Cc1ccccc1)NC(=O)c1cnccn1)B(O)O (stereo not drawn) + NC1CCC(NC2CC2c2ccccc2)CC1
3.83

Indicate the recorded viability, T/C value for this compound: CC1COCCN1c1cc(-c2ccnn2C)c2ccnc(-c3ccn[nH]3)c2n1 (stereo not drawn) + NC1CC1c1ccc(-c2cccc(O)c2)cc1
30.4

Indicate the recorded viability, T/C value for this compound: COc1ccc([C@@H](O)c2cc(-c3ncnc4cc(N5CCOCC5)ccc34)c(F)cc2Cl)nn1 + NC1CC1c1ccc(-c2cccc(O)c2)cc1
65.3

Indicate the recorded viability, T/C value for this compound: O=C(C=Cn1cnc(-c2cc(C(F)(F)F)cc(C(F)(F)F)c2)n1)NNc1cnccn1 + NC1CC1c1ccc(-c2cccc(O)c2)cc1
36.6

Indicate the recorded viability, T/C value for this compound: COc1cc(Nc2ncc3c(n2)-c2ccc(Cl)cc2C(c2c(F)cccc2OC)=NC3)ccc1C(=O)O + NC1CC1c1ccc(-c2cccc(O)c2)cc1
50.3

Indicate the recorded viability, T/C value for this compound: Cn1ncnc1C1c2n[nH]c(=O)c3cc(F)cc(c23)NC1c1ccc(F)cc1 (stereo not drawn) + NC1CCC(NC2CC2c2ccccc2)CC1
81.3

----------
test system: OVCAR-5 complex spheroids, viability; assay: Anticancer human tumor OVCAR-5 cell line growth inhibition; settings: second compound 10 µM; first compound 0.0316 µM; active = viability on the fitted dose curve at most 10% of control; inactive = the rest;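 note: spheroids exposed to agents for seven days; 100% = DMSO vehicle control wells viability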
Write down the outcome that applies. Available outcomes: active, inactive

How was COc1ccc([C@@H](O)c2cc(-c3ncnc4cc(N5CCOCC5)ccc34)c(F)cc2Cl)nn1 + NC1CC1c1ccc(-c2cccc(O)c2)cc1 classified in this test?
inactive

How was CC(C)c1c(-c2ccccc2)nc2c(C#N)c[nH]n2c1=O + NC1CCC(NC2CC2c2ccccc2)CC1 classified in this test?
inactive

How was COc1cc(Nc2ncc3c(n2)-c2ccc(Cl)cc2C(c2c(F)cccc2OC)=NC3)ccc1C(=O)O + NC1CC1c1ccc(-c2cccc(O)c2)cc1 classified in this test?
inactive

How was CC[C@@]1(O)C(=O)OCc2c1cc1n(c2=O)Cc2cc3c(CN(C)C)c(O)ccc3nc2-1 + NC1CC1c1ccc(-c2cccc(O)c2)cc1 classified in this test?
inactive

How was Nc1ncn(C2CC(O)C(CO)O2)c(=O)n1 (stereo not given) + NC1CC1c1ccc(-c2cccc(O)c2)cc1 classified in this test?
inactive

How was Cn1ncnc1C1c2n[nH]c(=O)c3cc(F)cc(c23)NC1c1ccc(F)cc1 (stereo not given) + NC1CCC(NC2CC2c2ccccc2)CC1 classified in this test?
inactive

How was Nc1ncn(C2CC(O)C(CO)O2)c(=O)n1 (stereo not given) + NC1CCC(NC2CC2c2ccccc2)CC1 classified in this test?
inactive

How was CC1(C)CCC(CN2CCN(c3ccc(C(=O)NS(=O)(=O)c4ccc(NCC5CCOCC5)c([N+](=O)[O-])c4)c(Oc4cnc5[nH]ccc5c4)c3)CC2)=C(c2ccc(Cl)cc2)C1 + NC1CC1c1ccc(-c2cccc(O)c2)cc1 classified in this test?
inactive

How was CC1COCCN1c1cc(-c2ccnn2C)c2ccnc(-c3ccn[nH]3)c2n1 (stereo not given) + NC1CCC(NC2CC2c2ccccc2)CC1 classified in this test?
inactive

How was COc1cc(Nc2ncc3c(n2)-c2ccc(Cl)cc2C(c2c(F)cccc2OC)=NC3)ccc1C(=O)O + NC1CCC(NC2CC2c2ccccc2)CC1 classified in this test?
inactive

How was CC1COCCN1c1cc(C2(S(C)(=N)=O)CC2)nc(-c2ccnc3[nH]ccc23)n1 (stereo not given) + NC1CC1c1ccc(-c2cccc(O)c2)cc1 classified in this test?
inactive

How was CC(C)CC(NC(=O)C(Cc1ccccc1)NC(=O)c1cnccn1)B(O)O (stereo not given) + NC1CC1c1ccc(-c2cccc(O)c2)cc1 classified in this test?
active

How was CC[C@@]1(O)C(=O)OCc2c1cc1n(c2=O)Cc2cc3c(CN(C)C)c(O)ccc3nc2-1 + NC1CCC(NC2CC2c2ccccc2)CC1 classified in this test?
inactive

How was CC1(C)CCC(CN2CCN(c3ccc(C(=O)NS(=O)(=O)c4ccc(NCC5CCOCC5)c([N+](=O)[O-])c4)c(Oc4cnc5[nH]ccc5c4)c3)CC2)=C(c2ccc(Cl)cc2)C1 + NC1CCC(NC2CC2c2ccccc2)CC1 classified in this test?
inactive

How was O=C(C=Cn1cnc(-c2cc(C(F)(F)F)cc(C(F)(F)F)c2)n1)NNc1cnccn1 + NC1CC1c1ccc(-c2cccc(O)c2)cc1 classified in this test?
inactive

Origin of the recorded values: PubChem BioAssay AID1918956
